- System: L. acidophilus NCFM
- Protocol notes: Growth of L. acidophilus NCFM on plant glycosides as single carbon source (OD600)
- Type: cell-based, Lactobacillus acidophilus
- Measurement context: growth concentration 0.5% (w/v), single carbon source; 200 μl cultures, 96 microtitre plates; corrected for medium without carbon source
Readout: OD600 max

1. O=c1ccc2cc(O[C@@H]3O[C@H](CO)[C@@H](O)[C@H](O)[C@H]3O)c(O)cc2o1 : 0.4
2. O=c1c(-c2ccc(O)cc2)coc2cc(O[C@@H]3O[C@H](CO)[C@@H](O)[C@H](O)[C@H]3O)ccc12 : 0.0
3. O=c1c(O[C@@H]2O[C@H](CO)[C@@H](O)[C@H](O)[C@H]2O)c(-c2ccc(O)c(O)c2)oc2cc(O)cc(O)c12 : 0.0
4. C=CCC(=NOS(=O)(=O)O)S[C@@H]1O[C@H](CO)[C@@H](O)[C@H](O)[C@H]1O (stereo in doubt) [Sinigrin hydrate] : 0.0
5. COc1cc(C=O)ccc1O[C@@H]1O[C@H](CO)[C@@H](O)[C@H](O)[C@H]1O [Vanilin 4-O-β-glucoside] : 1.3
6. COc1cc2ccc(=O)oc2c(O[C@@H]2O[C@H](CO)[C@@H](O)[C@H](O)[C@H]2O)c1O : 0.4
7. OCC1=C[C@@H](O)[C@@H]2C=CO[C@@H](O[C@@H]3O[C@H](CO)[C@@H](O)[C@H](O)[C@H]3O)[C@H]12 : 0.0
8. C[C@@H]1O[C@@H](OC[C@H]2O[C@@H](Oc3c(-c4ccc(O)c(O)c4)oc4cc(O)cc(O)c4c3=O)[C@H](O)[C@@H](O)[C@@H]2O)[C@H](O)[C@H](O)[C@H]1O [Rutin hydrate] : 0.1

====

- Tested on: L. acidophilus NCFM
- Protocol notes: RNA-seq transcriptional analysis of L. acidophilus NCFM growing on plant glycosides
- Format: cell-based, Lactobacillus acidophilus
- Measurement context: LBA1485 Ribokinase, COG G
Readout: Log2 differential normalized TPM ratio compared to glucose

1) OCc1ccccc1O[C@@H]1O[C@H](CO)[C@@H](O)[C@H](O)[C@H]1O : 0.5
2) O=c1ccc2cc(O[C@@H]3O[C@H](CO)[C@@H](O)[C@H](O)[C@H]3O)c(O)cc2o1 : −0.3
3) N#C[C@H](O[C@@H]1O[C@H](CO[C@@H]2O[C@H](CO)[C@@H](O)[C@H](O)[C@H]2O)[C@@H](O)[C@H](O)[C@H]1O)c1ccccc1 : 3.5
4) OC[C@H]1O[C@@H](O[C@H]2[C@H](O)[C@@H](O)[C@@H](O)O[C@@H]2CO)[C@H](O)[C@@H](O)[C@H]1O : 0.7

====

This section presents compounds with their documented Transcripts per million (rpm) values.
- Test system: L. acidophilus NCFM
- Protocol notes: RNA-seq transcriptional analysis of L. acidophilus NCFM growing on plant glycosides
- Format: cell-based, Lactobacillus acidophilus
- Measurement context: gene LBA1675 (Hypothetical protein)
Readout: Transcripts per million (rpm)

1. N#C[C@H](O[C@@H]1O[C@H](CO[C@@H]2O[C@H](CO)[C@@H](O)[C@H](O)[C@H]2O)[C@@H](O)[C@H](O)[C@H]1O)c1ccccc1 : 1397.9 rpm
2. O=c1ccc2cc(O[C@@H]3O[C@H](CO)[C@@H](O)[C@H](O)[C@H]3O)c(O)cc2o1 : 1975.8 rpm
3. OCc1ccccc1O[C@@H]1O[C@H](CO)[C@@H](O)[C@H](O)[C@H]1O : 1669.1 rpm
4. OC[C@H]1O[C@@H](O[C@H]2[C@H](O)[C@@H](O)[C@@H](O)O[C@@H]2CO)[C@H](O)[C@@H](O)[C@H]1O : 1127.6 rpm

====

- Test system: L. acidophilus NCFM
- Protocol notes: RNA-seq transcriptional analysis of L. acidophilus NCFM growing on plant glycosides
- Format: cell-based, Lactobacillus acidophilus
- Measurement context: LBA1878 Glycerol kinase, COG C
This section presents compounds with their documented Log2 differential normalized TPM ratio compared to glucose values.
Readout: Log2 differential normalized TPM ratio compared to glucose

1) N#C[C@H](O[C@@H]1O[C@H](CO[C@@H]2O[C@H](CO)[C@@H](O)[C@H](O)[C@H]2O)[C@@H](O)[C@H](O)[C@H]1O)c1ccccc1 : 1.4
2) OC[C@H]1O[C@@H](O[C@H]2[C@H](O)[C@@H](O)[C@@H](O)O[C@@H]2CO)[C@H](O)[C@@H](O)[C@H]1O : 0
3) O=c1ccc2cc(O[C@@H]3O[C@H](CO)[C@@H](O)[C@H](O)[C@H]3O)c(O)cc2o1 : 2.1
4) OCc1ccccc1O[C@@H]1O[C@H](CO)[C@@H](O)[C@H](O)[C@H]1O : 0.1

====

- System: L. acidophilus NCFM
- Protocol notes: RNA-seq transcriptional analysis of L. acidophilus NCFM growing on plant glycosides
- Assay type: cell-based, Lactobacillus acidophilus
- Measurement context: LBA0545 Hypothetical protein, COG L
This section presents molecules with their documented Transcripts per million (rpm) values.
Readout: Transcripts per million (rpm)

1) N#C[C@H](O[C@@H]1O[C@H](CO[C@@H]2O[C@H](CO)[C@@H](O)[C@H](O)[C@H]2O)[C@@H](O)[C@H](O)[C@H]1O)c1ccccc1 : 244.7
2) O=c1ccc2cc(O[C@@H]3O[C@H](CO)[C@@H](O)[C@H](O)[C@H]3O)c(O)cc2o1 : 286.5
3) OCc1ccccc1O[C@@H]1O[C@H](CO)[C@@H](O)[C@H](O)[C@H]1O : 259
4) OC[C@H]1O[C@@H](O[C@H]2[C@H](O)[C@@H](O)[C@@H](O)O[C@@H]2CO)[C@H](O)[C@@H](O)[C@H]1O : 306

====

- Test system: L. acidophilus NCFM
- Protocol notes: RNA-seq transcriptional analysis of L. acidophilus NCFM growing on plant glycosides
- Type: cell-based, Lactobacillus acidophilus
- Measurement context: LBA1723 Transposase, COG L
This section presents molecules with their documented Transcripts per million (rpm) values.
Readout: Transcripts per million (rpm)

1) N#C[C@H](O[C@@H]1O[C@H](CO[C@@H]2O[C@H](CO)[C@@H](O)[C@H](O)[C@H]2O)[C@@H](O)[C@H](O)[C@H]1O)c1ccccc1 [Amygdalin] : 176.9
2) OC[C@H]1O[C@@H](O[C@H]2[C@H](O)[C@@H](O)[C@@H](O)O[C@@H]2CO)[C@H](O)[C@@H](O)[C@H]1O [Lac] : 62
3) O=c1ccc2cc(O[C@@H]3O[C@H](CO)[C@@H](O)[C@H](O)[C@H]3O)c(O)cc2o1 [Esculin] : 55.8
4) OCc1ccccc1O[C@@H]1O[C@H](CO)[C@@H](O)[C@H](O)[C@H]1O [Salicin] : 75.5

====

- Tested on: L. acidophilus NCFM
- Protocol notes: RNA-seq transcriptional analysis of L. acidophilus NCFM growing on plant glycosides
- Assay type: cell-based, Lactobacillus acidophilus
- Measurement context: gene LBA0604 (Immunity protein)
This section presents compounds with their documented Log2 differential normalized TPM ratio compared to glucose values.
Readout: Log2 differential normalized TPM ratio compared to glucose

1) N#C[C@H](O[C@@H]1O[C@H](CO[C@@H]2O[C@H](CO)[C@@H](O)[C@H](O)[C@H]2O)[C@@H](O)[C@H](O)[C@H]1O)c1ccccc1 : 2
2) OC[C@H]1O[C@@H](O[C@H]2[C@H](O)[C@@H](O)[C@@H](O)O[C@@H]2CO)[C@H](O)[C@@H](O)[C@H]1O : 0.5
3) OCc1ccccc1O[C@@H]1O[C@H](CO)[C@@H](O)[C@H](O)[C@H]1O : −0.1
4) O=c1ccc2cc(O[C@@H]3O[C@H](CO)[C@@H](O)[C@H](O)[C@H]3O)c(O)cc2o1 : −0.3

====

This section presents molecules with their documented Log2 differential normalized TPM ratio compared to glucose values.
- System: L. acidophilus NCFM
- Protocol notes: RNA-seq transcriptional analysis of L. acidophilus NCFM growing on plant glycosides
- Type: cell-based, Lactobacillus acidophilus
- Measurement context: LBA0607 Putative transcriptional regulator, COG K
Readout: Log2 differential normalized TPM ratio compared to glucose

1) OCc1ccccc1O[C@@H]1O[C@H](CO)[C@@H](O)[C@H](O)[C@H]1O : 0.8
2) OC[C@H]1O[C@@H](O[C@H]2[C@H](O)[C@@H](O)[C@@H](O)O[C@@H]2CO)[C@H](O)[C@@H](O)[C@H]1O : 0.5
3) N#C[C@H](O[C@@H]1O[C@H](CO[C@@H]2O[C@H](CO)[C@@H](O)[C@H](O)[C@H]2O)[C@@H](O)[C@H](O)[C@H]1O)c1ccccc1 : 2.7
4) O=c1ccc2cc(O[C@@H]3O[C@H](CO)[C@@H](O)[C@H](O)[C@H]3O)c(O)cc2o1 : 1.8
